# measurement-target: UniProtKB P25090
# Sequence (P25090 whole entry): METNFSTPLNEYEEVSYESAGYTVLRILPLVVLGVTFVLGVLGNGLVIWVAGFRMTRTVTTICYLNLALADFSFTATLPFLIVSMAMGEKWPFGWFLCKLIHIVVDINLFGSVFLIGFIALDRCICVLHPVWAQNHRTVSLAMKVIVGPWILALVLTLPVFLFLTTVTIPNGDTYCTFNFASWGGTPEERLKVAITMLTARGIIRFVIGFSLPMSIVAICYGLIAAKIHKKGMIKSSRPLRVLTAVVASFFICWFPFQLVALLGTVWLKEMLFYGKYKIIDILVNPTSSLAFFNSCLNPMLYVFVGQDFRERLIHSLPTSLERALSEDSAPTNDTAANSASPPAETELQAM

[
  {
    "molecule": "Cc1ccc(C(=O)C2C(=O)C(=O)N(c3cc(C)on3)C2c2cccc(Br)c2)cc1 (stereo not given)",
    "Ki": "> 40.3 µM"
  },
  {
    "molecule": "O=C1C(=O)N(CCc2ccccc2)C(c2cccnc2)C1C(=O)c1ccco1 (stereo not given)",
    "Ki": "> 40.3 µM"
  },
  {
    "molecule": "Cc1ccc(C(=O)C2C(=O)C(=O)N(CCN3CCOCC3)C2c2cccnc2)cc1 (stereo not given)",
    "Ki": "> 40.3 µM"
  },
  {
    "molecule": "Cc1ccc(C2C(C(=O)c3ccc(Br)cc3)C(=O)C(=O)N2Cc2ccco2)o1 (stereo not given)",
    "Ki": "> 40.3 µM"
  },
  {
    "molecule": "Cc1ccc(C2c3c([nH]c(=S)[nH]c3=O)N=C3CC(C)(C)CC(=O)C32)cc1 (stereo not given)",
    "Ki": "> 40.3 µM"
  },
  {
    "molecule": "CCCOc1ccc(C2C(C(=O)c3ccco3)C(=O)C(=O)N2CCCn2ccnc2)cc1 (stereo not given)",
    "Ki": "> 40.3 µM"
  },
  {
    "molecule": "COc1ccc(OC)c(C2C(C(=O)c3ccco3)C(=O)C(=O)N2CCCN2CCOCC2)c1 (stereo not given)",
    "Ki": "> 40.3 µM"
  },
  {
    "molecule": "COCCN1C(=O)C(=O)C(C(=O)c2cccs2)C1c1ccccc1 (stereo not given)",
    "Ki": "> 40.3 µM"
  },
  {
    "molecule": "COc1cccc2cc(C(=O)C3C(=O)C(=O)N(Cc4ccco4)C3c3cccnc3)oc12 (stereo not given)",
    "Ki": "> 40.3 µM"
  },
  {
    "molecule": "COCCCN1C(=O)C(=O)C(C(=O)c2ccco2)C1c1ccccc1 (stereo not given)",
    "Ki": "> 40.3 µM"
  },
  {
    "molecule": "COc1cccc(C2C(C(=O)c3cc4ccccc4o3)C(=O)C(=O)N2c2cc(C)on2)c1OC (stereo not given)",
    "Ki": "> 40.3 µM"
  },
  {
    "molecule": "Cc1nc(C)c(C(=O)C2C(=O)C(=O)N(CCCn3ccnc3)C2c2ccc(Cl)cc2)s1 (stereo not given)",
    "Ki": "> 40.3 µM"
  },
  {
    "molecule": "COCCN1C(=O)C(=O)C(C(=O)c2ccco2)C1c1cccc(Oc2ccccc2)c1 (stereo not given)",
    "Ki": "> 40.3 µM"
  },
  {
    "molecule": "CC1=C(C(=O)OC(C)C)[C@]2(C(=O)N(CC(N)=O)c3ccccc32)C(C#N)C(=N)O1 (stereo not given in full)",
    "Ki": "> 40.3 µM"
  },
  {
    "molecule": "O=C1Nc2ccccc2/C1=C1/SC(=S)N(CC2CCCO2)C1=O (stereo not given)",
    "Ki": "> 40.3 µM"
  },
  {
    "molecule": "CCOc1ccc(C(=O)C2C(=O)C(=O)N(c3nc(C)c(C)s3)C2c2ccco2)cc1 (stereo not given)",
    "Ki": "> 40.3 µM"
  },
  {
    "molecule": "Cc1nc2c(C)cccn2c1C(=O)C1C(=O)C(=O)N(CCN2CCOCC2)C1c1cccs1 (stereo not given)",
    "Ki": "> 40.3 µM"
  },
  {
    "molecule": "CCCOc1ccc(C2C(C(=O)c3ccc(C)o3)C(=O)C(=O)N2CCCn2ccnc2)cc1 (stereo not given)",
    "Ki": "> 40.3 µM"
  },
  {
    "molecule": "CCOc1ccc(C2C(C(=O)c3ccco3)C(=O)C(=O)N2CCCn2ccnc2)cc1 (stereo not given)",
    "Ki": "> 40.3 µM"
  },
  {
    "molecule": "COC(=O)c1ccc(C2C(C(=O)c3ccc(OC)cc3)C(=O)C(=O)N2Cc2ccco2)cc1 (stereo not given)",
    "Ki": "> 40.3 µM"
  },
  {
    "molecule": "Cc1ccc(C)c(C(=O)C2C(=O)C(=O)N(CCCn3ccnc3)C2c2ccncc2)c1 (stereo not given)",
    "Ki": "> 40.3 µM"
  },
  {
    "molecule": "COc1cc(C2C(C(=O)c3cccs3)C(=O)C(=O)N2Cc2ccco2)cc(OC)c1OC (stereo not given)",
    "Ki": "> 40.3 µM"
  },
  {
    "molecule": "CC1=NC(C)=C(C#N)C(c2ccc3ncccc3c2)C1C#N (stereo not given)",
    "Ki": "> 40.3 µM"
  },
  {
    "molecule": "C=CCN1C(=O)C2(c3ccccc31)C(C(=O)c1ccc3c(c1)OCCO3)C(=O)C(=O)N2CCCOC (stereo not given)",
    "Ki": "> 40.3 µM"
  },
  {
    "molecule": "Cc1ccc(C2C(C(=O)c3cnn(-c4ccccc4)c3C)C(=O)C(=O)N2CCN2CCOCC2)o1 (stereo not given)",
    "Ki": "> 40.3 µM"
  }
]
